Parameter activity at 25 µM: see the listing below.
# Test system: M. mycetomatis genome strain MM55
# Method Summary: CLSI M38-A2 based in vitro susceptibility screening (XTT or resazurin), growth at fixed concentration
# Type: cell-based, Madurella mycetomatis
# Measurement Context: Madurella mycetomatis, 25 uM, mean of three replicates; read-out: Percentage survival at 25um, 25 uM mean

Molecule	Tgt	activity at 25 µM [%]
CCCCCc1ccc(C(=O)NCCn2cc(CCCCCc3cnc(N)[nH]3)nn2)cc1 [MMV1580847]	M. mycetomatis genome strain MM55	63.2
CC(C)N(c1cc(-c2ccccc2)sc1C(=O)O)C(=O)[C@H]1CC[C@H](C)CC1 [MMV1634388]	M. mycetomatis genome strain MM55	90
CC[C@@]1(O)C(=O)OCc2c1cc1n(c2=O)Cc2cc3c(CN(C)C)c(O)ccc3nc2-1 [MMV1633678]	M. mycetomatis genome strain MM55	101
O=C(c1cc(O)nc2ccccc12)N1CCN(c2ccccc2)CC1 [MMV596723]	M. mycetomatis genome strain MM55	81.5
CCCCc1ccc(-c2cc(C(=O)O)cc(-c3ccc(Cl)cc3)n2)cc1 [MMV1580852]	M. mycetomatis genome strain MM55	33.8
OCCC#Cc1nc(-c2ccc(F)cc2)c(-c2ccncc2)n1CCCc1ccccc1 [MMV1580797]	M. mycetomatis genome strain MM55	67.7
CCOC(=O)/C=C/[C@H](C[C@@H]1CCNC1=O)NC(=O)[C@@H](CC(=O)[C@@H](NC(=O)c1cc(C)on1)C(C)C)Cc1ccc(F)cc1 [MMV1580491]	M. mycetomatis genome strain MM55	96.1
Cc1cc(C)n2nc(C(=O)NS(=O)(=O)c3c(C)cccc3OC(F)(F)F)nc2n1 [MMV1782402]	M. mycetomatis genome strain MM55	96.1
O=c1oc2ccc(Br)cc2cc1CSc1ncc[nH]1 [MMV1782105]	M. mycetomatis genome strain MM55	79.9
CCOC(=O)N[C@@H]1CC[C@@H]2[C@@H](C1)C[C@H]1C(=O)O[C@H](C)[C@H]1[C@H]2/C=C/c1ccc(-c2cccc(F)c2)cn1 [MMV1593515]	M. mycetomatis genome strain MM55	69.2
O=C(NN1C(=O)[C@@H]2C3C=CC([C@H]4C[C@@H]34)[C@@H]2C1=O)c1ccc(C(F)(F)F)cc1 [MMV1782114]	M. mycetomatis genome strain MM55	90.1
NC(=O)c1nccn([C@@H]2O[C@H](CO)[C@@H](O)[C@H]2O)c1=O [MMV1782104]	M. mycetomatis genome strain MM55	99.8
CC(C)(C)NC(=O)[C@@H]1C[C@@H]2CCCC[C@@H]2CN1C[C@@H](O)[C@H](Cc1ccccc1)NC(=O)[C@H](CC(N)=O)NC(=O)c1ccc2ccccc2n1 [MMV637879]	M. mycetomatis genome strain MM55	92.5
O=c1nc(N2CCN(CC3CCCCC3)CC2)sc2c([N+](=O)[O-])cc(C(F)(F)F)cc12 [MMV1578885]	M. mycetomatis genome strain MM55	90.5
O=C(NCCN1CCCCC1)c1cccc(C(F)(F)F)c1 [MMV1633964]	M. mycetomatis genome strain MM55	86.8
COc1cccc(N2CCN(C3=Nc4c(F)cccc4[C@H](CC(=O)O)N3c3cc(C(F)(F)F)ccc3OC)CC2)c1 [MMV690653]	M. mycetomatis genome strain MM55	91
